For each of the molecules below, state its IC50.
Target: vanilloid receptor (Rattus norvegicus)
Construct: DRG nerve cells from the primary culture of 2 days were equilibrated; endogenous in cells
Sequence (O35433 whole entry): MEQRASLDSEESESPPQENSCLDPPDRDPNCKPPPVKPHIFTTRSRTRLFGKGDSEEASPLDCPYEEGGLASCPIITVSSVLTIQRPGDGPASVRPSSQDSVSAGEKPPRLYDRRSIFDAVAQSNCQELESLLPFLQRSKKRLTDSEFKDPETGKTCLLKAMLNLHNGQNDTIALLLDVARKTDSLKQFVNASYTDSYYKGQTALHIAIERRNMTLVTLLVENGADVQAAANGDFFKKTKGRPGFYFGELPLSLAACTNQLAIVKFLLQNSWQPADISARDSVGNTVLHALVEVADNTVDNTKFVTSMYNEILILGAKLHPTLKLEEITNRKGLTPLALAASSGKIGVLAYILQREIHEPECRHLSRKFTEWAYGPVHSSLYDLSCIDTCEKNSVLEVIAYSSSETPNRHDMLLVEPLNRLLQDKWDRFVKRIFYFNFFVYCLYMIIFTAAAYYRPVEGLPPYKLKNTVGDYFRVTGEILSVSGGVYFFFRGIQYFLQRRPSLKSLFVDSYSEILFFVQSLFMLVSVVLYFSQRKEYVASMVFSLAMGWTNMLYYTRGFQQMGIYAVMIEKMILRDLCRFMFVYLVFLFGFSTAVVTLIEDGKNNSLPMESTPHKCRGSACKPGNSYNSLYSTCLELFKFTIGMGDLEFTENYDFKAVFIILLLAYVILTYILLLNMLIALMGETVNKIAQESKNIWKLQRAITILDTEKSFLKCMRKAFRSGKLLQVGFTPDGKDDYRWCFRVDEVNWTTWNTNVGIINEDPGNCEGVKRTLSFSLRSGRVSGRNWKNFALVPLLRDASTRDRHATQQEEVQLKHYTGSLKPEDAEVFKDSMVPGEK
Assay: 45Ca influx test in primary cultured DRG neurons (capsaicin-induced calcium uptake)
Conditions: neonatal SD rat DRG neurons; capsaicin 0.5 μM; 45Ca 10 μCi/ml; 10 min at room temperature
Experimental: 1) Separation of Spinal Dorsal Root Ganglia (DRG) in Newborn Rats and Primary Culture Thereof Neonatal (2-3 day old or younger than 2-3 day old) SD rats were put in ice for 5 minutes to anesthetize and disinfected with 70% ethanol. DRG of all part of spinal cord were dissected (Wood et al., 1988, J. Neurosci. 8, pp 3208-3220) and collected in DME/F12 medium to which 1.2 g/l sodium bicarbonate, 50 mg/l gentamycin were added. […]
Expressed in nM, but write only the number.

Qu. Given the molecule Cc1cc(CNC(=O)NCc2ccc(C(C)(C)C)cc2)cc(Cl)c1NS(C)(=O)=O , what is its reported IC50?
Ans. 190

Qu. Given the molecule CC(C)(C)c1ccc(CNC(=O)NCc2ccc(NS(C)(=O)=O)c(Cl)c2)cc1 , what is its reported IC50?
Ans. 240

Qu. Given the molecule C/C(=C\c1ccc(C(C)(C)C)cc1)C(=O)NCc1ccc(NS(C)(=O)=O)c(F)c1 , what is its reported IC50?
Ans. 120

Qu. Given the molecule CC(C)(C)c1ccc(C#CC(=O)NCc2ccc(NS(C)(=O)=O)cc2)cc1 , what is its reported IC50?
Ans. 590

Qu. Given the molecule CC(C)(C)c1ccc(/C=C/C(=O)NCc2cc(F)c(NS(C)(=O)=O)cc2F)cc1 , what is its reported IC50?
Ans. 210

Qu. Given the molecule Cc1cc(CNC(=O)/C=C/c2ccc(C(C)(C)C)cc2)cc(Cl)c1NS(C)(=O)=O , what is its reported IC50?
Ans. 360

Qu. Given the molecule CC(C)(C)c1ccc(/C=C/C(=O)NCc2cc(Cl)c(NS(C)(=O)=O)c(I)c2)cc1 , what is its reported IC50?
Ans. 350

Qu. Given the molecule CC(C)(C)c1ccc(CNC(=O)NCc2cc(F)c(NS(C)(=O)=O)c(F)c2)cc1 , what is its reported IC50?
Ans. 470

Qu. Given the molecule CC(C)(C)c1ccc(CNC(=O)NCc2cc(I)c(NS(C)(=O)=O)cc2Cl)cc1 , what is its reported IC50?
Ans. 530

Qu. Given the molecule Cc1cc(CNC(=O)NCc2ccc(C(C)(C)C)cc2)ccc1NS(C)(=O)=O , what is its reported IC50?
Ans. 83

Data provenance: patent US7960584B2
